System: cells, GFP-channel autofluorescence, high-content imaging
Assay: cell-permeable autofluorescent compounds in GFP channel, dose response, artefact control, imaging, high-content imaging (AID 2124)
Inconclusive results are not listed. Active and inactive are the calls of the source. No rule for the calls is given here; tested in MIN6 cells.
Classes used: active, inactive

>  <MOLECULE>
O=C(C1=C(O)C(=O)N(c2nccs2)C1c1ccccc1)c1cc2ccccc2o1 (centres undefined)

>  <CATEGORY>
active

$$$$
>  <MOLECULE>
CN1CCS/C1=C/C=C1/SC(=S)N(Cc2ccccc2)C1=O

>  <CATEGORY>
active

$$$$
>  <MOLECULE>
Cn1cc(/C=C2\SC(=S)N(NC(=O)c3ccccc3Cl)C2=O)c2ccccc21

>  <CATEGORY>
inactive

$$$$
>  <MOLECULE>
CCN1CCc2c(sc(NC(=S)NC(=O)c3ccc(Cl)cc3)c2C(N)=O)C1

>  <CATEGORY>
active

$$$$
>  <MOLECULE>
COc1ccc2c(C)cc(SCC(=O)N(C)C3CCS(=O)(=O)C3)nc2c1 (centres undefined)

>  <CATEGORY>
active

$$$$
>  <MOLECULE>
C=CCN1C(=O)/C(=C\C=C2\N(C)c3ccccc3C2(C)C)SC1=S

>  <CATEGORY>
active

$$$$
>  <MOLECULE>
Cc1cc2c(C(F)(F)F)cc(=O)oc2c2c1NCCC2

>  <CATEGORY>
active

$$$$
>  <MOLECULE>
O=C1c2cccc3c(O)ccc(c23)C(=O)N1Cc1ccco1

>  <CATEGORY>
inactive

$$$$
>  <MOLECULE>
N#C/C(=C\c1ccc(N2CCCCC2)o1)C(N)=O

>  <CATEGORY>
inactive

$$$$
>  <MOLECULE>
CCN(CC)c1ccc2cc(C(N)=O)/c(=N\NC(=O)c3ccncc3)oc2c1

>  <CATEGORY>
active

$$$$
>  <MOLECULE>
C=CCN1C(=O)/C(=C/c2ccc(N(C)C)cc2)S/C1=N\c1nnc(CC)s1

>  <CATEGORY>
active

$$$$
>  <MOLECULE>
O=c1oc2c3c4c(cc2c(C(F)(F)F)c1CCN1CCOCC1)CCCN4CCC3

>  <CATEGORY>
active

$$$$
>  <MOLECULE>
CCCCN1C(=O)/C(=C/C=C2\N(C)c3ccccc3C2(C)C)SC1=S

>  <CATEGORY>
active

$$$$
>  <MOLECULE>
N#C/C(=C\c1ccc(N2CCOCC2)o1)c1ccccc1

>  <CATEGORY>
inactive

$$$$
>  <MOLECULE>
COc1ccc(C(=O)/C=C/c2ccc(N(C)C)cc2)c(OC)c1

>  <CATEGORY>
active

$$$$
>  <MOLECULE>
CC1=C/C(=C\C=C(C#N)C#N)N(C)c2ccccc21

>  <CATEGORY>
active

$$$$
>  <MOLECULE>
COc1ccc(/C=C2\CC/C(=C\c3ccc(OC)cc3OC)C2=O)c(OC)c1

>  <CATEGORY>
active

$$$$
>  <MOLECULE>
CN1CC=C2C(C#N)=C(N)C(C#N)(C#N)C(c3ccncc3)C2C1 (centres undefined)

>  <CATEGORY>
inactive

$$$$
>  <MOLECULE>
CCCN1C(=O)/C(=C/c2c(NCCCOC(C)C)nc3c(C)cccn3c2=O)SC1=S

>  <CATEGORY>
inactive

$$$$
